tested on: HepG-2; test: MTT antiproliferative assay, HepG-2; assay type: cell-based, human; conditions: 100 μM, 48 h, MTT
Would you kindly list % Growth Inhibition at 100 μM HepG-2 for each of these compounds?

input: Look up and report measured % Growth Inhibition at 100 μM HepG-2 for this entry: CC12CCC3C(CC=C4CC(O)CCC43C)C1C/C(=C\c1cn(-c3ccc([N+](=O)[O-])cc3)nn1)C2=O (stereo not shown)
output: 12.4%

input: Look up and report measured % Growth Inhibition at 100 μM HepG-2 for this entry: CC12CCC3C(CC=C4CC(O)CCC43C)C1C/C(=C\c1cn(-c3ccc(Cl)c(Cl)c3)nn1)C2=O (stereo not shown)
output: 48.2%

###

Would you kindly list IC50 for each of these compounds?
test system: HepG-2; test: MTT antiproliferative assay, HepG-2; type: cell-based, human; conditions: 48 h, MTT

input: Look up and report measured IC50 for this entry: CC12CCC3C(CC=C4CC(O)CCC43C)C1C/C(=C\c1cn(-c3ccc(Br)cc3)nn1)C2=O (stereo not shown) [Compound 2k]
output: 37.1 µM

input: Look up and report measured IC50 for this entry: CC12CCC3C(CC=C4CC(O)CCC43C)C1C/C(=C\c1cn(-c3ccc(C(F)(F)F)cc3)nn1)C2=O (stereo not shown) [Compound 2w]
output: > 100 µM

input: Look up and report measured IC50 for this entry: COc1ccc(-n2cc(/C=C3\CC4C5CC=C6CC(O)CCC6(C)C5CCC4(C)C3=O)nn2)cc1 (stereo not shown) [Compound 2s]
output: > 100 µM

input: Look up and report measured IC50 for this entry: CC12CCC3C(CC=C4CC(O)CCC43C)C1C/C(=C\c1cn(-c3ccc(Cl)c(Cl)c3)nn1)C2=O (stereo not shown) [Compound 2h]
output: > 100 µM

###

tested on: Hela; experiment: MTT antiproliferative assay, Hela; format: cell-based, human; conditions: Homo sapiens, HeLa; 48 h, MTT
Quantity measured: pIC50
Please report pIC50 as the negative decimal logarithm of the molar concentration, giving only the number.

input: Look up and report measured pIC50 for this entry: CC12CCC3C(CC=C4CC(O)CCC43C)C1C/C(=C\c1cn(-c3ccc(F)cc3)nn1)C2=O (centres unmarked)
output: 4.88

input: Look up and report measured pIC50 for this entry: Cc1ccc(-n2cc(/C=C3\CC4C5CC=C6CC(O)CCC6(C)C5CCC4(C)C3=O)nn2)cc1 (centres unmarked)
output: 4.20

input: Look up and report measured pIC50 for this entry: CC12CCC3C(CC=C4CC(O)CCC43C)C1C/C(=C\c1cn(-c3ccc(Cl)cc3)nn1)C2=O (centres unmarked)
output: 4.24

input: Look up and report measured pIC50 for this entry: CC12CCC3C(CC=C4CC(O)CCC43C)C1C/C(=C\c1cn(-c3cccc(F)c3)nn1)C2=O (centres unmarked)
output: 4.08

###

Would you kindly list inhibition at 100 µM for each of these compounds?
tested on: human normal liver (L02) cells; assay: MTT assay on normal cell line L02; format: cell-based; settings: Homo sapiens, L02; 100 μM, 48 h, MTT, normal cells; read-out: % Growth Inhibition at 100 μM L02
Please reply with the bare figure in % and do not write the unit itself.

input: Report the value of inhibition at 100 µM obtained on human normal liver (L02) cells for CC12CCC3C(CC=C4CC(O)CCC43C)C1C/C(=C\c1cn(-c3ccccc3)nn1)C2=O (stereo not shown) [Compound 2a] .
output: 22.3

input: Report the value of inhibition at 100 µM obtained on human normal liver (L02) cells for CC12CCC3C(CC=C4CC(O)CCC43C)C1C/C(=C\c1cn(-c3ccc(Cl)cc3)nn1)C2=O (stereo not shown) [Compound 2g] .
output: 40.9

input: Report the value of inhibition at 100 µM obtained on human normal liver (L02) cells for C[C@]12CC[C@H](O)CC1=CC[C@@H]1[C@@H]2CC[C@]2(C)C(=O)CC[C@@H]12 [DHEA, Dehydroepiandrosterone] .
output: 44.6

input: Report the value of inhibition at 100 µM obtained on human normal liver (L02) cells for CC12CCC3C(CC=C4CC(O)CCC43C)C1C/C(=C\c1cn(-c3ccc(I)cc3)nn1)C2=O (stereo not shown) [Compound 2n] .
output: 34.2

input: Report the value of inhibition at 100 µM obtained on human normal liver (L02) cells for COc1cc(-n2cc(/C=C3\CC4C5CC=C6CC(O)CCC6(C)C5CCC4(C)C3=O)nn2)cc(OC)c1OC (stereo not shown) [Compound 2u] .
output: 36.4

input: Report the value of inhibition at 100 µM obtained on human normal liver (L02) cells for CC12CCC3C(CC=C4CC(O)CCC43C)C1C/C(=C\c1cn(-c3cccc(F)c3)nn1)C2=O (stereo not shown) [Compound 2c] .
output: 79.3

input: Report the value of inhibition at 100 µM obtained on human normal liver (L02) cells for CC12CCC3C(CC=C4CC(O)CCC43C)C1C/C(=C\c1cn(-c3ccc(F)cc3)nn1)C2=O (stereo not shown) [Compound 2d] .
output: 80.3

input: Report the value of inhibition at 100 µM obtained on human normal liver (L02) cells for CC12CCC3C(CC=C4CC(O)CCC43C)C1C/C(=C\c1cn(-c3cccc(Cl)c3)nn1)C2=O (stereo not shown) [Compound 2f] .
output: 60.2

input: Report the value of inhibition at 100 µM obtained on human normal liver (L02) cells for Cc1ccc(-n2cc(/C=C3\CC4C5CC=C6CC(O)CCC6(C)C5CCC4(C)C3=O)nn2)cc1 (stereo not shown) [Compound 2p] .
output: 67.1

input: Report the value of inhibition at 100 µM obtained on human normal liver (L02) cells for Cc1cccc(-n2cc(/C=C3\CC4C5CC=C6CC(O)CCC6(C)C5CCC4(C)C3=O)nn2)c1 (stereo not shown) [Compound 2o] .
output: 40.1
